biological target: Rap guanine nucleotide exchange factor 3 (Homo sapiens) (UniProt O95398); test: Confirmatory qHTS for antagonist of cAMP-regulated guanine nucleotide exchange factor 3 (EPAC1) (AID 1645880); conditions: EPAC1 Rap1B-BODIPY-GDP exchange, fluorescence; series mostly up to 115 µM; further: nearly all actives have a fitted effect of over 55% in size
Sequence (O95398 whole entry, looked up): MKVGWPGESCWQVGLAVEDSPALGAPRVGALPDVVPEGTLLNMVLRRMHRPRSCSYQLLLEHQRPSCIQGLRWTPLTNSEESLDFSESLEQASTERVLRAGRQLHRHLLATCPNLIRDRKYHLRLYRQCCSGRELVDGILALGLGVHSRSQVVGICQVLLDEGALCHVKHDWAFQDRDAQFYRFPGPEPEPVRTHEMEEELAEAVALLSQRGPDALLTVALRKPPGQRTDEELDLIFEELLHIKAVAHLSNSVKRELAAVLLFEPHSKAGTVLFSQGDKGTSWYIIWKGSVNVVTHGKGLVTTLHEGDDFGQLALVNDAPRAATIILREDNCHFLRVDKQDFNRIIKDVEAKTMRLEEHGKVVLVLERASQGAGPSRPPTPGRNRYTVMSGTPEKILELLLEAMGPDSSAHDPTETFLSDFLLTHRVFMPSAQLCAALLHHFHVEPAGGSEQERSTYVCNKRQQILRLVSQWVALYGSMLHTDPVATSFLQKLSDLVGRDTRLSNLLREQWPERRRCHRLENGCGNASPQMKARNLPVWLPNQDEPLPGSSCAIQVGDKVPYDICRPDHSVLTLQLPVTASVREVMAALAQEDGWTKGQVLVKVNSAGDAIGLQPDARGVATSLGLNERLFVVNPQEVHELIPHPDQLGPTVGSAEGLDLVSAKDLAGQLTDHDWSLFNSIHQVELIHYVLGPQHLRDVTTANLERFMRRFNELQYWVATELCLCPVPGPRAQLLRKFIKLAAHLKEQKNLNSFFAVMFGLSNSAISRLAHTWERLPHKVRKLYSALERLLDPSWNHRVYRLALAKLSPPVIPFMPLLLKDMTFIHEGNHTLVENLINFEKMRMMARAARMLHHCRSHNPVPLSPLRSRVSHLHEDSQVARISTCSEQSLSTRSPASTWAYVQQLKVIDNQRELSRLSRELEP
Results filed as inconclusive are left out. Activity calls are given as the source filed them. The call rests on the fitted dose curve; in most records, active means well fitted inhibition curve with a large enough effect; inconclusive means small, poorly fitted or top-dose-only effect; inactive means no such curve, though single readings can be large or run the other way.
Possible outcomes: yes (1) (active), no (0) (inactive)

> print(dat)
                                    compound  assigned.category
 1                Cc1nnc(SCc2cccc3ccccc23)s1             no (0)
 2  CCCCCC(=O)Nc1ccc(C2C(=O)c3ccccc3C2=O)cc1             no (0)
 3               O=C1NC(=O)/C(=C/c2ccccn2)S1             no (0)
 4  COc1ccc(-c2nnc(SCC(=O)c3ccco3)n2-c2ccccc2)cc1             no (0)
 5  Cc1c(CCC(=O)O)c(=O)oc2cc(OCc3ccc(Br)cc3)ccc12             no (0)
 6  CC1(C)CC(=O)C=C(c2ccc(F)cc2OCc2ccccc2)C1             no (0)
 7                  Cc1ccc(OCCn2cccn2)c(C)c1             no (0)
 8    Cc1sc(NC(=O)C2=COCCO2)nc1-c1ccc(Cl)cc1             no (0)
 9  Cc1ccc(C2(C)NC(=O)N(CC(=O)Nc3ccccc3N3CCCCC3)C2=O)cc1 (configuration not stated)             no (0)
10  Cc1cc(C)cc(C(O)c2ncc(-c3ccccc3Cl)[nH]2)c1 (configuration not stated)             no (0)
11  COc1ccc(C2c3c(ncn(CCCO)c3=N)Oc3ccc4ccccc4c32)cc1 (configuration not stated)             no (0)
12          Clc1ccc(CSc2nncn3c2cc2occc23)cc1            yes (1)
13  O=C(N/N=C/c1cn(-c2ccccc2)nc1-c1cccnc1)c1ccccc1             no (0)
14      Cc1c(C(=O)NCCO)sc2nc3n(c(=O)c12)CCC3             no (0)
15            O=c1[nH]c(Nc2ccccc2)cc2ccccc12            yes (1)
16  COc1cc(/C=C2\SC(=S)N(NS(=O)(=O)c3ccccc3)C2=O)ccc1O             no (0)
17  CC(=O)N1CCc2nc3sc(C(=O)Nc4ccc(Cl)cc4F)c(N)c3c(C(F)(F)F)c2C1             no (0)
18  COc1ccccc1N1CCN(c2ncnc3onc(-c4ccc(F)cc4)c23)CC1             no (0)
19       Oc1ccc(NCc2ccccc2OCc2ccc(Cl)cc2)cc1            yes (1)
20     O=C(CNC(=O)c1sc2ccccc2c1Cl)Nc1ccccc1F             no (0)
21  Cc1ccc(O)c(N=Cc2cc(Cc3ccccc3)cc([N+](=O)[O-])c2O)c1            yes (1)
22    COC(=O)c1cc2oc(C)cc2n1Cc1c(C)cc(C)cc1C             no (0)
23        CCCN(CCC)Cc1cc(=O)oc2cc(C)cc(C)c12             no (0)
24  Cc1ccc(C(=O)O/N=C(\c2ccccc2)c2cccnc2)cc1             no (0)
25  COc1ccc(Cl)cc1N1C(=O)C2CCCN2C1c1ccccc1F (configuration not stated)             no (0)
26  COc1ccccc1Cc1nc2ccccc2nc1SCC(=O)Nc1ccccc1C(F)(F)F             no (0)
27  N=C1/C(=C\c2ccc(OC(=O)c3ccccc3Cl)cc2)C(=O)N=C2SC(N3CCOCC3)=NN12            yes (1)
